Reported values of RP-LC retention time for individual entries
# Assay: gradient 5% acetonitrile 3 min, to 50% in 2 min, to 85% in 15 min, held 3 min, 100 µL/min
# Cond: column: Zorbax Extend-C18 2.1 x 50 mm; eluents: water / acetonitrile, 0.1% formic acid
Parameter: RP-LC retention time (s)

[[record]]
compound = "CCS(=O)(=O)N1CCCN(C(=O)NC(C)C)CC1"
parameter = "RP-LC retention time"
recorded_measurement = 613

[[record]]
compound = "CC(C)(C)c1noc(-c2cccnc2-n2cnc(C(=O)NC3CCCC3)c2)n1"
parameter = "RP-LC retention time"
recorded_measurement = 968

[[record]]
compound = "COc1cccc(N2C=C(C(=O)N3CCOCC3)S(=O)(=O)c3ccccc32)c1"
parameter = "RP-LC retention time"
recorded_measurement = 645

[[record]]
compound = "CCc1noc2nc(C)n(CC(=O)NC3CCCc4ccccc43)c(=O)c12 (centres undefined)"
parameter = "RP-LC retention time"
recorded_measurement = 867

[[record]]
compound = "Cc1ccc(-c2nc(N3CC4(C)CC3CC(C)(C)C4)c3ccccc3n2)cc1 (centres undefined)"
parameter = "RP-LC retention time"
recorded_measurement = 1060

[[record]]
compound = "COc1ccc(NS(=O)(=O)c2cc(-c3nc(C(C)(C)C)cs3)cs2)cc1F"
parameter = "RP-LC retention time"
recorded_measurement = 1180

[[record]]
compound = "O=C(Nc1ccccc1)C1CCCN(c2ncnc3c2oc2ccccc23)C1 (centres undefined)"
parameter = "RP-LC retention time"
recorded_measurement = 798

[[record]]
compound = "COc1ccc(-c2cc(N3CCCC(C(=O)Nc4cccc5cccnc45)C3)ncn2)cc1 (centres undefined)"
parameter = "RP-LC retention time"
recorded_measurement = 629

[[record]]
compound = "COc1ccc(-c2cn3cccnc3n2)cc1NC(=O)c1cccc(OC)c1OC"
parameter = "RP-LC retention time"
recorded_measurement = 718

[[record]]
compound = "O=C(CC1c2ncccc2C(=O)N1c1ccccc1)N1CCN(C2CCCCC2)CC1 (centres undefined)"
parameter = "RP-LC retention time"
recorded_measurement = 591

[[record]]
compound = "CCN1CCN(c2cc(C)c3cc(NC(=S)NCc4ccc5c(c4)OCO5)ccc3n2)CC1"
parameter = "RP-LC retention time"
recorded_measurement = 590

[[record]]
compound = "Cc1cccc(OCC(=O)N(Cc2ccc(Br)o2)C2CCS(=O)(=O)C2)c1C (centres undefined)"
parameter = "RP-LC retention time"
recorded_measurement = 960

[[record]]
compound = "Cc1ccccc1-c1noc(C2CCCN2C(=O)Nc2ccc(F)cc2F)n1 (centres undefined)"
parameter = "RP-LC retention time"
recorded_measurement = 993

[[record]]
compound = "CCCn1ccc2sc(C)c(C(=O)NCc3ccc(F)cc3Cl)c2c1=O"
parameter = "RP-LC retention time"
recorded_measurement = 1000

[[record]]
compound = "Cc1cc(NC(=O)Cc2csc(NC(=O)c3ccc(F)cc3)n2)sn1"
parameter = "RP-LC retention time"
recorded_measurement = 701

[[record]]
compound = "COc1ccc(S(=O)(=O)N2CC(C(=O)NC3CCCC3)Oc3cc(C)ccc32)cc1 (centres undefined)"
parameter = "RP-LC retention time"
recorded_measurement = 1100

[[record]]
compound = "O=C(NCc1ccco1)C1CCN(Cc2cc3ccccc3n2Cc2ccc(Cl)cc2)CC1"
parameter = "RP-LC retention time"
recorded_measurement = 783

[[record]]
compound = "O=C(Nc1nccs1)c1cc(Cl)sc1Cl"
parameter = "RP-LC retention time"
recorded_measurement = 836

[[record]]
compound = "O=C(NC1CCCCC1)c1cccc(Nc2c(-c3ccc(Cl)cc3)nc3cnccn23)c1"
parameter = "RP-LC retention time"
recorded_measurement = 935


====

# Assay: gradient 5% acetonitrile 3 min, to 50% in 2 min, to 85% in 15 min, held 3 min, 100 µL/min
# Cond: column: Zorbax Extend-C18 2.1 x 50 mm; eluents: water / acetonitrile, 0.1% formic acid
Here the recorded RP-LC retention time is given for each entry.
Parameter: RP-LC retention time (s)

[[record]]
compound = "O=C(CCc1nc2ccccc2s1)N1[C@H]2CC[C@@H]1c1cnc(-c3ccccc3)nc1C2"
units_of_measure = "s"
recorded_measurement = 902

[[record]]
compound = "O=C(c1cccc(Cl)c1)N1CCC2(CC1)N=C(c1cccc(Br)c1)NO2"
units_of_measure = "s"
recorded_measurement = 970

[[record]]
compound = "CCOc1cccc(CN2C[C@@H](CO)[C@H](c3ccncc3)C2)c1"
units_of_measure = "s"
recorded_measurement = 546

[[record]]
compound = "CCc1ccc(N2CC(c3nc(-c4ccc(OC)c(OC)c4)no3)CC2=O)cc1 (stereo not given)"
units_of_measure = "s"
recorded_measurement = 989

[[record]]
compound = "COc1ccc(S(=O)(=O)NC2CCN(C(=O)C3CCN(C(C)=O)CC3)CC2)cc1"
units_of_measure = "s"
recorded_measurement = 634


====

# Assay: gradient 5% acetonitrile 3 min, to 50% in 2 min, to 85% in 15 min, held 3 min, 100 µL/min
# Cond: column: Zorbax Extend-C18 2.1 x 50 mm; eluents: water / acetonitrile, 0.1% formic acid
Decide using RP-LC retention time: a value greater than or equal to 800 s is MET, a smaller one is NOT MET.

[[record]]
compound = "CCCN1CCN(C(=O)CN2CCN(C(=O)Nc3ccc(Br)cc3)CC2=O)CC1"
cat = "NOT MET"

[[record]]
compound = "COc1cccc(C(=O)N2CCC(c3cc(N)on3)CC2)c1"
cat = "NOT MET"

[[record]]
compound = "O=S(=O)(Cc1ccccc1)N1CCCC(Cc2nncn2CC2CC2)C1 (centres undefined)"
cat = "NOT MET"

[[record]]
compound = "COc1ccc(CN2C(=O)c3ccccc3C2C(=O)NC2CCCC2)c(OC)c1 (centres undefined)"
cat = "MET"

[[record]]
compound = "COC(=O)c1ccc(C(=O)OC)c(NC(=O)N2CCC(CN3CCCCCC3)CC2)c1"
cat = "NOT MET"

[[record]]
compound = "CCOC(=O)c1nc(NCCCN2CCN(Cc3ccccc3)CC2)c2ccccc2n1"
cat = "NOT MET"

[[record]]
compound = "CCN(CC)CCNC(=O)CCc1nc2c(C)nn(-c3ccccc3)c2n(C)c1=O"
cat = "NOT MET"

[[record]]
compound = "CCC1CCCCN1C(=O)c1cnc2nc(C)ccc2c1Nc1ccc(C)cc1 (centres undefined)"
cat = "NOT MET"

[[record]]
compound = "Cc1cc(C)cc(-n2ccn(Cc3nc(-c4ccc(Cl)c(F)c4)no3)c(=O)c2=O)c1"
cat = "MET"

[[record]]
compound = "CCc1ccc(NC(=O)C2CCCN2S(=O)(=O)c2ccc3c(c2)CCCC(=O)N3)cc1 (centres undefined)"
cat = "MET"

[[record]]
compound = "Cc1cccc(-n2c(N3CCCC(C(=O)Nc4ccc(Cl)cc4)C3)nc3ccsc3c2=O)c1 (centres undefined)"
cat = "MET"

[[record]]
compound = "CCCc1cc(N2CCN(C(=O)c3ccncc3)CC2)nc2nnc(CC)n12"
cat = "NOT MET"

[[record]]
compound = "COCCCn1c(=O)c2ccccc2n(Cc2nc(-c3ccc4c(c3)OCO4)no2)c1=O"
cat = "MET"

[[record]]
compound = "COc1ccc(-c2cc(N3CCN(C(=O)c4ccc5[nH]ccc5c4)CC3)n[nH]2)cc1"
cat = "NOT MET"

[[record]]
compound = "CC(NC(=O)C1CCN(S(=O)(=O)c2ccc(Cl)cc2)CC1)C(=O)N1CCCc2ccccc21 (centres undefined)"
cat = "MET"

[[record]]
compound = "O=C([C@@H]1C[C@H](F)CN1C(=O)c1ccc(F)cc1)N1CCCCC1"
cat = "NOT MET"

[[record]]
compound = "C#CCSc1n[nH]c(-c2ccco2)n1"
cat = "NOT MET"

[[record]]
compound = "CCCCN1C(=O)C(NC(=O)c2cccc(OC)c2)(C(F)(F)F)C(C(C)=O)=C1C (centres undefined)"
cat = "MET"


====

# Assay: gradient 5% acetonitrile 3 min, to 50% in 2 min, to 85% in 15 min, held 3 min, 100 µL/min
# Cond: column: Zorbax Extend-C18 2.1 x 50 mm; eluents: water / acetonitrile, 0.1% formic acid
Documented RP-LC retention time across a set of compounds
Parameter: RP-LC retention time (s)

[[record]]
compound = "Cc1sc(-c2noc(C(C)C)n2)cc1S(=O)(=O)N1CCC(C(=O)NC2CCCCC2)CC1"
parameter = "RP-LC retention time"
units_of_measure = "s"
recorded_measurement = 1090

[[record]]
compound = "CCCNC(=O)c1cc(N2CCCC2)n2nccc2n1"
parameter = "RP-LC retention time"
units_of_measure = "s"
recorded_measurement = 792

[[record]]
compound = "Cc1ccc(C(C)NC(=O)c2nnc(-c3ccc(S(=O)(=O)N(C)C)cc3)o2)c(C)c1 (stereo not given)"
parameter = "RP-LC retention time"
units_of_measure = "s"
recorded_measurement = 984

[[record]]
compound = "O=C(Cc1cccs1)Nc1cccc(OCc2nnc(-c3ccc(Cl)cc3)o2)c1"
parameter = "RP-LC retention time"
units_of_measure = "s"
recorded_measurement = 1010

[[record]]
compound = "CCCCS(=O)(=O)N1CCC(c2cc(N)on2)CC1"
parameter = "RP-LC retention time"
units_of_measure = "s"
recorded_measurement = 706

